Provide the reported IC50 of each item.
Target: recombinant IgG1(kappa) 4E10
Test: competitive ELISA: peptide against biotinylated …(biotin)-NH2 for IgG 4E10
Bridges are numbered along the chain shown (N, C = ends). Where no end group is shown, it is not given here. [ ]: non-standard residue; d: D form. Orn = NCCC[C@H](N)C(=O)O; Aib = CC(C)(N)C(=O)O

Use the examples below as a reference point.
binder	result
NWFDITNWLWYIKXKXKK (B = Aib at positions 14 and 16; C-terminal amide) [peptide 119, …BKBKK-NH2]	0.01 µM
KGWNWFDITNWGK (not fully specified) [peptide KGND (…)]	> 10 µM
NWFCIT[Orn]WLWKKKK-NH2 (bridge 4-7; not fully specified (bridges); printed as peptide 104-2, NWFc(CITO)WLWKKKK-NH2) [peptide 104-2, NWFc(CITO)WLWKKKK-NH2]	0.01 µM
CWFXITNWLWKKKK (cyclic thioether between Cys 1 and ornithine (O) 4; C-terminal amide) [peptide 74-2, c(CWFO)…-NH2]	0.23 µM

Okay, next one:
Lab note: NWFDITNWLWK[Aib]K[Aib]K-NH2 (N-terminus assumed; SMILES CC[C@H](C)[C@H](NC(=O)[C@H](CC(=O)O)NC(=O)[C@H](Cc1ccccc1)NC(=O)[C@H](Cc1c[nH]c2ccccc12)NC(=O)[C@@H](N)CC(N)=O)C(=O)N[C@H](C(=O)N[C@@H](CC(N)=O)C(=O)N[C@@H](Cc1c[nH]c2ccccc12)C(=O)N[C@@H](CC(C)C)C(=O)N[C@@H](Cc1c[nH]c2ccccc12)C(=O)N[C@@H](CCCCN)C(=O)NC(C)(C)C(=O)N[C@@H](CCCCN)C(=O)NC(C)(C)C(=O)N[C@@H](CCCCN)C(N)=O)[C@@H](C)O) [peptide 102-1, …BKBK-NH2] gave IC50 of 0.01 µM
